Listing of recorded normalized GFP fluorescence by entry.
Tested on: Staphylococcus aureus MW2 delta-mecA (mecA-)
Assay remarks: normalized GFP fluorescence (growth of mecA- strain) (fraction of control range); higher = more growth of mecA- strain
Condition: compound concentration: 150 uM; cefoxitin: subinhibitory; fluorescent label: GFP
Structures can show the parent of a compound that is named as a salt.

| Compound | normalized GFP fluorescence |
| --- | --- |
| CCCCc1nc(Cl)c(CO)n1Cc1ccc(-c2ccccc2-c2nnn[nH]2)cc1 | 0.297 |
| CN1CCC(=C2c3ccccc3CCc3cccnc32)CC1 | 0.396 |
| Cc1nc(-c2ccc(OCC(C)C)c(C#N)c2)sc1C(=O)O | 0.0973 |
| CN(C)CCN(Cc1ccccc1)c1ccccn1 | 0.488 |
| CC(C)(C)NCC(O)COc1cccc2c1CCC(=O)N2 (stereo not given) | 0.243 |
| O=C1CN(/N=C/c2ccc([N+](=O)[O-])o2)C(=O)N1 | 0.0054 |
| NC(N)=Nc1nc(CSCC/C(N)=N/S(N)(=O)=O)cs1 | 0.53 |
| CN1CCN(C2=Nc3ccccc3Oc3ccc(Cl)cc32)CC1 | 0.35 |
| CCCS(=O)(=O)Nc1ccc(F)c(C(=O)c2c[nH]c3ncc(-c4ccc(Cl)cc4)cc23)c1F | 0.416 |
| CCOC(=O)[C@H](CCc1ccccc1)N[C@H]1CCc2ccccc2N(CC(=O)O)C1=O | -0.00401 |
| CCC(C)CCCCC(=O)NC(CCN)C(=O)NC(C(=O)NC(CCN)C(=O)NC1CCNC(=O)C(C(C)O)NC(=O)C(CCN)NC(=O)C(CCN)NC(=O)C(CC(C)C)NC(=O)C(Cc2ccccc2)NC(=O)C(CCN)NC1=O)C(C)O (stereo not given) | 0.159 |
| CC1(C)[C@@H](O)CC[C@]2(C)[C@H]3C(=O)C=C4[C@@H]5C[C@@](C)(C(=O)O)CC[C@]5(C)CC[C@@]4(C)[C@]3(C)CC[C@@H]12 | 0.0336 |
| O=C1CN(/N=C/c2ccc(-c3ccc([N+](=O)[O-])cc3)o2)C(=O)N1 | 0.519 |
| CC(C)OC(=O)C(C)(C)Oc1ccc(C(=O)c2ccc(Cl)cc2)cc1 | 0.203 |
| NC(=O)c1cn(Cc2c(F)cccc2F)nn1 [Rufinamide (Banzel)] | 0.199 |
| CC(C)N1CCN(c2ccc(OCC3COC(Cn4cncn4)(c4ccc(Cl)cc4Cl)O3)cc2)CC1 (stereo not given) | 0.199 |
| C/C=C/c1ccc(OC)cc1 | 0.443 |
| CN(c1nccc(=O)[nH]1)C1CCN(c2nc3ccccc3n2Cc2ccc(F)cc2)CC1 | 0.387 |
| Clc1ccc(CSC(Cn2ccnc2)c2ccc(Cl)cc2Cl)cc1 (stereo not given) | -0.00367 |
| Cc1noc(NS(=O)(=O)c2ccc(N)cc2)c1C | 0.025 |
| CCCc1nc(C(C)(C)O)c(C(=O)OCc2oc(=O)oc2C)n1Cc1ccc(-c2ccccc2-c2nnn[nH]2)cc1 | 0.0265 |
| OCCN(CCO)c1nc(N2CCCCC2)c2nc(N(CCO)CCO)nc(N3CCCCC3)c2n1 | 0.523 |
| Cc1cc2nc3c(=O)[nH]c(=O)nc-3n(CC(O)C(O)C(O)COP(=O)(O)O)c2cc1C (stereo not given) | 0.933 |
| CC(=O)O[C@]1(C(C)=O)CC[C@H]2[C@@H]3C=C(Cl)C4=CC(=O)CC[C@]4(C)[C@H]3CC[C@@]21C | 0.23 |
| Cc1[nH]c2ccccc2c1CCNCc1ccc(/C=C/C(=O)NO)cc1 | 0.228 |
| C=CC[C@@H]1/C=C(\C)C[C@H](C)C[C@H](OC)[C@H]2O[C@@](O)(C(=O)C(=O)N3CCCC[C@H]3C(=O)O[C@H](/C(C)=C/[C@@H]3CC[C@@H](O)[C@H](OC)C3)[C@H](C)[C@@H](O)CC1=O)[C@H](C)C[C@@H]2OC [FK-506 (Tacrolimus)] | 0.0621 |
| C[C@H]1C[C@H]2[C@@H]3CCC4=CC(=O)C=C[C@]4(C)[C@@]3(F)[C@@H](O)C[C@]2(C)[C@@]1(O)C(=O)CO | 0.0397 |
| CCS(=O)(=O)CCn1c([N+](=O)[O-])cnc1C | 0.603 |
| CC1(C)NC(=O)N(c2ccc([N+](=O)[O-])c(C(F)(F)F)c2)C1=O | 0.333 |
| O=C1C(O)=C([C@H]2CC[C@H](c3ccc(Cl)cc3)CC2)C(=O)c2ccccc21 | 0.714 |
| CN1CCN(CC(=O)N2c3ccccc3C(=O)Nc3cccnc32)CC1 | 0.28 |
| CCCN1CCCC[C@H]1C(=O)Nc1c(C)cccc1C [Ropivacaine HCl] | 0.242 |
| COc1ccc2c(c1)C(=O)N(CCc1ccc(S(=O)(=O)NC(=O)NC3CCCCC3)cc1)C(=O)C2(C)C | 0.017 |
| CN1CCCN=C1COC(=O)C(O)(c1ccccc1)C1CCCCC1 (stereo not given) | 0.399 |
| CC(C)CN(C[C@@H](O)[C@H](Cc1ccccc1)NC(=O)O[C@H]1CCOC1)S(=O)(=O)c1ccc(N)cc1 | 0.174 |
